Assay: Viscosity index (VI)
Assay type: physicochemical
Conditions: Table 2, base oil
OBSERVED_PROPERTY: VI

Worked set:
MOLECULE	OBSERVED_PROPERTY	ASSAY_VALUE
CC(C)CCCCCCCOC(=O)CCCCCCCC(=O)OCCCCCCCC(C)C [Diisodecyl azelate]	VI	151
CC(C)CCCCCCCCCCOC(=O)CCCCCCCC(=O)OCCCCCCCCCCC(C)C [C9D13, di(isotridecyl)nonanedioate]	VI	124
CC(C)CCCCCCCCCCOC(=O)CCCCCCCCCCC(=O)OCCCCCCCCCCC(C)C [C12D13, di(isotridecyl)dodecanedioate]	VI	158
CC(C)CCCCCCCOC(=O)CCCCC(=O)OCCCCCCCC(C)C [Diisodecyl adipate]	VI	148
CCCCCCCCC(CCCCCC)COC(=O)CCCCCCCC(=O)OCC(CCCCCC)CCCCCCCC (centres unmarked) [Bis(2-hexyldecyl) azelate]	VI	160

I: CCCCCCCCCCCCCOC(=O)CCCCCCCC(=O)OCCCCCCCCCCCCC [Ditridecyl azelate]
II: CCCCCCCCCCCCCCOC(=O)CCCCC(=O)OCCCCCCCCCCCCCC [Ditetradecyl adipate]
[ask] Of I and II , whose reported VI is numerically smaller? I would appreciate it if you answered with the label of your choice.
[reply] II
(II: 75, I: 145)

Data provenance: patent US20130190217A1
